- assay-system: GLS1 (purified recombinant human GAC) (Homo sapiens)
- Sequence (O94925 55-598 isoform O94925-3 limits assumed): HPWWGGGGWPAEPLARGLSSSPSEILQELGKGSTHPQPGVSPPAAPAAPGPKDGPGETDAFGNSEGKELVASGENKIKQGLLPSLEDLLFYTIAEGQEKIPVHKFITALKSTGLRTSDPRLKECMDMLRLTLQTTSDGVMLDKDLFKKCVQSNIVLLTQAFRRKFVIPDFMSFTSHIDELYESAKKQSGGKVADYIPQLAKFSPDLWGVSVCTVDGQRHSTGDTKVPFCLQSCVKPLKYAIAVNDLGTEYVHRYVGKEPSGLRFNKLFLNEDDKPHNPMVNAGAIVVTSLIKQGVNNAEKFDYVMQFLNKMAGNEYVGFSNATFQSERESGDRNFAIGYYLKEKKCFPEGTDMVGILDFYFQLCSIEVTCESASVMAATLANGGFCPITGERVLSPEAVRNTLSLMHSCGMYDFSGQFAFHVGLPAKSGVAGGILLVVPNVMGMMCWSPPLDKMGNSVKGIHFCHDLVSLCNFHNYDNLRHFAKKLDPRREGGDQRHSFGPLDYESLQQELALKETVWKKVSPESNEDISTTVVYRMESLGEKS
- measurement-description: GLS1 enzymatic activity assay (dual-coupled, Amplex UltraRed/resorufin)
pIC50: −log10 of the molar value.
measurement-type: pIC50

1) CC(C)NC(=O)Nc1ccn(CCCCc2ccc(NC(=O)Cc3cccc(OC(F)(F)F)c3)nn2)c(=O)n1 | 6.30 to 7.00
2) COc1cccc(CNC(=O)c2cn(CCCCn3ccc(NC(=O)Cc4cccc(OC(F)(F)F)c4)cc3=O)nn2)c1 | > 7.00
3) O=C(Cc1ccccc1)Nc1ccn(CCC(F)Cn2cc(C(=O)NCc3cc(Cl)ccc3F)nn2)c(=O)c1F (stereo not shown) | > 7.00
4) CC(OC(=O)Nc1ccn(CCC(F)Cn2cc(C(=O)NCc3cccc(OC(F)(F)F)c3)nn2)c(=O)n1)c1ccccc1 (stereo not shown) | > 7.00

* * *

- assay-system: GLS1 (purified recombinant human GAC) (Homo sapiens)
- measurement-description: GLS1 enzymatic activity assay (dual-coupled, Amplex UltraRed/resorufin)
measurement-type: IC50

1. Cc1ccc(CNC(=O)c2cn(CCCCn3ccc(NC(=O)OCc4ccccc4)cc3=O)nn2)cn1 [Example 135] | 100 to 500 nM
2. O=C(NCc1cncc(C(F)(F)F)c1)c1cn(CC(F)CCn2ccc(NC(=O)C3CCCC3)c(F)c2=O)nn1 (stereo not shown) [Example 364] | < 100 nM
3. CCN1CCC(CC(=O)Nc2ccn(CCCCn3cc(C(=O)NCc4cccc(OC(F)(F)F)c4)nn3)c(=O)c2)CC1 [Example 207] | 500 to 5000 nM
4. CC(C)(C)OC(=O)Nc1ccn(CCCCn2cc(C(=O)NCc3cccc(C(F)(F)F)c3)nn2)c(=O)c1 [Example 139] | < 100 nM

* * *

- assay-system: GLS1 (purified recombinant human GAC) (Homo sapiens, UniProt O94925)
- measurement-description: GLS1 enzymatic activity assay (dual-coupled, Amplex UltraRed/resorufin)
measurement-type: IC50

1. Nc1ccn(CCC(F)Cn2cc(C(=O)NCc3cncc(C(F)(F)F)c3)nn2)c(=O)c1F (stereo not shown) [Example 331] | 0.5 to 5 µM
2. Cc1ccc(CNC(=O)c2cn(CCC(F)Cn3ccc(NC(=O)Cc4ccccc4)cc3=O)nn2)cn1 (stereo not shown) [Example 148] | < 0.1 µM
3. O=C(Cc1ccccc1)Nc1ccn(CCC(F)Cn2cc(C(=O)NCc3cc(Cl)ccc3F)nn2)c(=O)c1 (stereo not shown) [Example 216] | < 0.1 µM
4. O=C(Cc1cccc(OC(F)(F)F)c1)Nc1ccc(CCCCn2ccc(NC(=O)Cc3ccccc3)nc2=O)nn1 [Example 75] | < 0.1 µM
5. O=C(Nc1ccn(CCC(F)Cn2cc(C(=O)NCc3cccc(C(F)(F)F)n3)nn2)c(=O)c1F)OC1CCC1 (stereo not shown) [Example 397] | 0.1 to 0.5 µM
6. CC(C)(C)OC(=O)NCc1cn(CCCCn2ccc(NC(=O)Cc3ccccc3)cc2=O)nn1 [Example 9] | 0.5 to 5 µM
7. O=C(CN1CCC(F)(F)CC1)Nc1ccn(CCC(F)Cn2cc(C(=O)NCc3cccc(OC(F)(F)F)c3)nn2)c(=O)c1F (stereo not shown) [Example 290] | < 0.1 µM
8. O=C(Cc1ccccc1)Nc1ccn(CCC(F)Cn2cc(C(=O)NCc3cncc(C(F)(F)F)c3)nn2)c(=O)c1F (stereo not shown) [Example 348] | < 0.1 µM
9. Cc1cccc(CNC(=O)c2cn(CCC(F)Cn3ccc(NC(=O)Cc4ccccc4)cc3=O)nn2)n1 (stereo not shown) [Example 162] | < 0.1 µM
10. O=C(CC1CCNCC1)Nc1ccn(CCC(F)Cn2cc(C(=O)NCc3cccc(OC(F)(F)F)c3)nn2)c(=O)c1 (stereo not shown) [Example 280] | 0.1 to 0.5 µM
11. CNC(=O)c1cn(CC(F)CCn2ccc(NC(=O)CN3CCN(C(=O)OC(C)(C)C)CC3)cc2=O)nn1 (stereo not shown) [Example 403] | 0.1 to 0.5 µM
12. O=C(CN1CCCCC1)Nc1ccn(CCCCc2nnc(C(=O)NCc3cc(C(F)(F)F)ccn3)s2)c(=O)c1F [Example 467] | < 0.1 µM
13. CC(C)(C)OC(=O)Nc1ccn(CCC(F)Cn2cc(C(=O)NCc3cc(C(F)(F)F)ccn3)nn2)c(=O)c1F (stereo not shown) [Example 320] | 0.1 to 0.5 µM
14. O=C(CN1CCCC(F)C1)Nc1ccn(CCC(F)Cn2cc(C(=O)NCc3cccc(OC(F)(F)F)c3)nn2)c(=O)c1 (stereo not shown) [Example 275] | < 0.1 µM
15. O=C(NCc1cccc(OC(F)(F)F)c1)c1cn(CC(F)CCn2ccc(NC(=O)C3CCCC3)c(F)c2=O)nn1 (stereo not shown) [Example 342] | < 0.1 µM
16. CC(C)(C)COC(=O)Nc1ccn(CCC(F)Cn2cc(C(=O)NCc3cc(C(F)(F)F)ccn3)nn2)c(=O)n1 (stereo not shown) [Example 492] | < 0.1 µM
17. CC(C)(C)OC(=O)N1CCN(CC(=O)Nc2ccn(CCC(F)Cn3cc(C(=O)NCc4cccc(OC(F)(F)F)c4)nn3)c(=O)c2)CC1 (stereo not shown) [Example 271] | < 0.1 µM
18. CO[C@H](C(=O)Nc1ccn(CC(F)CCn2cc(C(=O)NCc3cccc(OC(F)(F)F)c3)nn2)c(=O)c1F)c1ccccc1 (stereo partly shown) [Example 309] | 0.5 to 5 µM
19. CC(C)CNC(=O)c1ccn(CCCCn2cc(C(=O)NCc3cccc(OC(F)(F)F)c3)nn2)c(=O)c1 [Example 62] | 0.1 to 0.5 µM
20. O=C(CC1CCC1)Nc1ccn(CCCCc2nnc(C(=O)NCc3cc(C(F)(F)F)ccn3)s2)c(=O)c1F [Example 465] | < 0.1 µM
21. O=C(Nc1ccn(CCC(F)Cn2cc(C(=O)NCc3cccc(OC(F)(F)F)c3)nn2)c(=O)c1F)C(=O)N1CCCCC1 (stereo not shown) [Example 358] | < 0.1 µM
22. Cc1ccc(CNC(=O)c2cn(CCCCn3ccc(NC(=O)Cc4cccc(OC(F)(F)F)c4)cc3=O)nn2)cn1 [Example 70] | < 0.1 µM
23. O=C(NCc1cccc(OC(F)(F)F)c1)c1cn(CC(F)CCn2ccc(NC(=O)[C@@H](O)c3ccccc3)c(F)c2=O)nn1 (stereo partly shown) [Example 286] | < 0.1 µM
24. O=C(NCC1CCCCC1)c1ccn(CCCCn2cc(C(=O)NCc3cccc(OC(F)(F)F)c3)nn2)c(=O)c1 [Example 63] | < 0.1 µM
25. CC(C)(C)OC(=O)N1CC2(CN(CC(=O)Nc3ccn(CCC(F)Cn4cc(C(=O)NCc5cccc(OC(F)(F)F)c5)nn4)c(=O)c3F)C2)C1 (stereo not shown) [Example 297] | < 0.1 µM
26. O=C(O)C(=O)Nc1ccn(CCC(F)Cn2cc(C(=O)NCc3cccc(OC(F)(F)F)c3)nn2)c(=O)c1F (stereo not shown) [Example 359] | 0.1 to 0.5 µM
27. O=C(Cc1ccccc1)Nc1ccn(CCC(F)Cn2cc(C(=O)NCC3CCCC3)nn2)c(=O)c1F (stereo not shown) [Example 381] | 0.1 to 0.5 µM
28. O=C(CN1CCCC1)Nc1ccn(CCC(F)Cn2cc(C(=O)NCc3cccc(OC(F)(F)F)c3)nn2)c(=O)c1 (stereo not shown) [Example 270] | 0.1 to 0.5 µM

* * *

- assay-system: GLS1 (purified recombinant human GAC) (Homo sapiens, UniProt O94925)
- measurement-description: GLS1 enzymatic activity assay (dual-coupled, Amplex UltraRed/resorufin)
- Format: biochemical
pIC50: −log10 of the molar value.
measurement-type: pIC50

1) O=C(CC1CCC1)Nc1ccn(CCC(F)Cn2cc(C(=O)NCc3ccc(OC(F)(F)F)cn3)nn2)c(=O)c1F (centres unmarked) | > 7.00
2) O=C(CC1CCCCC1)Nc1ccn(CCCCn2cc(C(=O)NCc3cccc(C(F)(F)F)c3)nn2)c(=O)c1 | > 7.00
3) O=C(NCc1cc(C(F)(F)F)ccn1)c1cn(CC(F)CCn2ccc(COc3ccc(F)cc3F)cc2=O)nn1 (centres unmarked) | > 7.00
4) CC(C)(O)c1ccc(CNC(=O)c2cn(CC(F)CCn3ccc(NC(=O)CC4CCCCC4)c(F)c3=O)nn2)cn1 (centres unmarked) | > 7.00
5) O=C(Cc1cccc(OC(F)(F)F)c1)Nc1ccc(CCCCn2ccc(NC(=O)NC3CCCCC3)nc2=O)nn1 | > 7.00
6) CC(NC(=O)c1cn(CCCCn2ccc(NC(=O)CC3CCCCC3)cc2=O)nn1)c1cccc(OC(F)(F)F)c1 (centres unmarked) | 6.30 to 7.00
7) O=C(Cc1cccc(OC(F)(F)F)c1)Nc1ccn(CCCCc2nnc(NC(=O)Cc3ccccc3)s2)c(=O)n1 | > 7.00
8) O=C(CC1CCCCC1)Nc1ccn(CCC(F)Cn2cc(C(=O)NCc3ccc(C(F)(F)F)cn3)nn2)c(=O)c1F (centres unmarked) | > 7.00
9) Nc1nnc(CCCCn2ccc(NC(=O)Cc3ccccc3)nc2=O)s1 | 5.30 to 6.30
10) Cn1cc(CC(=O)Nc2ccn(CCCCc3ccc(NC(=O)Cc4cccc(OC(F)(F)F)c4)nn3)c(=O)n2)cn1 | > 7.00
11) CC(C)(C)OC(=O)N1CCN(CC(=O)Nc2ccn(CCC(F)Cn3cc(C(=O)NCC4CCCC4)nn3)c(=O)c2)CC1 (centres unmarked) | 6.30 to 7.00
12) O=C(Cc1ccccc1)Nc1ccn(CCCCn2cc(C(=O)NCc3cccc(OC(F)(F)F)c3)nn2)c(=O)c1F | > 7.00
13) O=C(Nc1ccn(CCC(F)Cn2cc(C(=O)NCc3cc(C(F)(F)F)ccn3)nn2)c(=O)c1F)C(=O)N1CCCCC1 (centres unmarked) | > 7.00
14) CC(=O)OC(C(=O)Nc1ccn(CC[C@H](F)Cn2cc(C(=O)NCc3cc(C(F)(F)F)ccn3)nn2)c(=O)c1F)c1ccccc1 (some centres unmarked) | > 7.00
